Values from ChEMBL document CHEMBL1144361

# Assayed Target: C-C chemokine receptor type 4 (Homo sapiens, UniProt P51679)
# Sequence (P51679 whole entry): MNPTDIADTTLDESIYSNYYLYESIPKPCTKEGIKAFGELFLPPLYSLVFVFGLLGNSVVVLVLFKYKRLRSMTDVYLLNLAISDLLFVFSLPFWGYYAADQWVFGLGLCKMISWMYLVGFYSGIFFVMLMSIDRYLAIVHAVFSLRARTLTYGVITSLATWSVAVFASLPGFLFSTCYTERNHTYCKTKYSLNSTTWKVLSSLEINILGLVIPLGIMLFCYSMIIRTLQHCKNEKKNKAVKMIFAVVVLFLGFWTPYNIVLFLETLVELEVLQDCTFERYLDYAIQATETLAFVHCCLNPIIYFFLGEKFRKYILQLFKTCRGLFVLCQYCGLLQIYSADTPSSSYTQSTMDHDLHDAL
# Method Notes: Inhibitory concentration against human C-C chemokine receptor type 4
Readout Type: IC50 (µM)

> print(dat)
                                   compound                            assayed.target  readout.type  unit.text  measured
1    CCN(CC)CCCCNc1nccc(OCc2ccc(Cl)cc2Cl)n1  C-C chemokine receptor type 4 (Homo sapiens, UniProt P51679)          IC50         µM         3
2  CCN(CC)CCCC(C)Nc1nc(CCc2ccccc2)nc2ccccc12 (stereo unspecified)  C-C chemokine receptor type 4 (Homo sapiens, UniProt P51679)          IC50         µM       2.4
3     CCN(CC)CCCNc1nccc(OCc2ccc(Cl)cc2Cl)n1  C-C chemokine receptor type 4 (Homo sapiens, UniProt P51679)          IC50         µM         8
4  CCN(CC)CCCC(C)Nc1nccc(OCc2ccc(Cl)cc2Cl)n1 (stereo in doubt; 10a)  C-C chemokine receptor type 4 (Homo sapiens, UniProt P51679)          IC50         µM       1.5

I = CCN(CC)CCCC(C)Nc1ccnc(OCc2ccc(Cl)cc2Cl)n1 (stereo unspecified)
II = CCN(CC)CCCC(C)Nc1ccnc(COc2ccc(F)cc2)c1 (stereo unspecified)
Which gives the smaller IC50 number: I or II ? Respond with the label that goes with your answer.
I

a = CN(C)CCCCCNc1nccc(OCc2ccc(Cl)cc2Cl)n1
b = CCN(CC)CCCC(C)Nc1ccnc(COc2ccccc2Cl)c1 (stereo unspecified)
Form field 'greater IC50' accepts a or b ; which applies? Respond with the label that goes with your answer.
b

* * *

# Assayed Target: C-C chemokine receptor type 4 (Homo sapiens)
# Method Notes: Inhibitory concentration against human C-C chemokine receptor type 4
Readout Type: IC50 (nM)

> print(dat)
                                   molecule  readout.type  unit.text  measured
1  CCN(CC)CCCC(C)Nc1ccnc(COc2ccc(Cl)cc2Cl)c1 (stereo unspecified)          IC50         nM      1200

I = CCN(CC)CCCC(C)Nc1nc(COc2ccccc2)nc2ccccc12 (stereo unspecified)
II = CCN(CC)CCCC(C)Nc1ccnc(COc2ccc(Cl)cc2)c1 (stereo unspecified)
Which gives the smaller IC50 number: I or II ? Respond with the label that goes with your answer.
I
(I: 2000 nM, II: 20000 nM)

a = CCN(CC)CCCC(C)Nc1nccc(OCc2ccc(Cl)cc2Cl)n1 (stereo in doubt; 11a)
b = CCN(CC)CCCC(C)Nc1ccnc(COc2ccc(Cl)c(Cl)c2)c1 (stereo unspecified)
c = CCN(CC)CCNc1nccc(OCc2ccc(Cl)cc2Cl)n1
d = CCN(CC)CCCC(C)Nc1nc(-c2ccc3ccccc3c2)nc2ccccc12 (stereo unspecified)
Put these in order: smallest IC50 first, largest last. Write the labels in rank order as requested.
a, d, b, c
(a: 1500 nM, d: 2500 nM, b: 4000 nM, c: 9000 nM)

* * *

# Assayed Target: C-C chemokine receptor type 4 (Homo sapiens, UniProt P51679)
# Method Notes: Inhibitory concentration against human C-C chemokine receptor type 4; range = 3.6-6.1 uM
Readout Type: IC50 (µM)
Express your answer in µM, writing the number without its unit.

Given the molecule CCN(CC)CCCC(C)Nc1nc(/C=C/c2ccccc2)nc2ccccc12 (stereo unspecified) , write its reported IC50.
6.1
